Tested on: aqueous solubility in 1x PBS
Assay: compound solubility in 1x PBS – biophysical, set 2, ADME assay (AID 624321)
Conditions: at 100 µM
Activity calls are given as the source filed them. No rule for the calls is given here.
Labels: active, inactive

>  <Molecule>
Cc1cc(-c2nnc3n2CCCCC3)c(C)n1-c1ccccc1

>  <Class name>
active

$$$$
>  <Molecule>
O=c1oc2c(O)c(O)cc3c(=O)oc4c(O)c(O)cc1c4c23

>  <Class name>
active

$$$$
>  <Molecule>
COc1nc(-c2ccccc2)nnc1-c1ccccc1

>  <Class name>
inactive

$$$$
>  <Molecule>
O=C(O)c1ccccc1OCc1ccccc1Br

>  <Class name>
active

$$$$
>  <Molecule>
O=C(O)CCC(NS(=O)(=O)c1ccc(-c2ccccc2)cc1)C(=O)O (stereo unspecified)

>  <Class name>
active

$$$$
>  <Molecule>
c1ccc(CC2CCN(c3ncnc4sccc34)CC2)cc1

>  <Class name>
inactive

$$$$
